- Test system: MS2 coat protein
- assay remarks: apparent KD of MS2 coat protein; designed switch direction (-1 OFF switch, 1 ON switch): -1; higher = weaker reporter binding
- condition context: input ligand: FMN 200 uM
List of apparent KD of MS2 coat protein values.
Could you give me the number in nM? Just the number is fine.

>>> recorded_number("AAAUCGGAGGAGGAUAUGGUACAGGAAACGGUGCCAGAAGGUUUCACAUGAGGAUCACCCAUGUCAAAUAGCGA [EX6 #59] (Eterna round: R97, puzzle: Exclusion 6)")
21.3
>>> recorded_number("GUUUGACAUGAGGAUCACCCAUGUAAGGAUAUACGAGUAGAUGAUAGAUAGAUAGUAAGUAGAAGGUACGUGUU [Translation] (Eterna round: R97, puzzle: Exclusion 1)")
70.6
>>> recorded_number("GUCAUCAAACAUGGGAUAAACAUGAGGAUCACCCAUGUUAACAAGUUUUUUGCUCGUCUUAUAAUAAGUUUGAUGAC [Antenna 11 - Jieux - Sensor, turn-off variant 1] (Eterna round: R97, puzzle: Sensor, turn-off variant 1)")
12.4
>>> recorded_number("GCCGGAUUUGUGAGGAUAUGCCUAUGGAUACAUAGGCAGAAGGCACAUGAGGAUCACCCAUGUUCCUCACCGGC [JL-BMX4-4.24 Eli mod] (Eterna round: R97, puzzle: Brourd's mod of Exclusion 4)")
232

Task: Find the recorded apparent KD of MS2 coat protein belonging to GGGUGACAUGAGGAUCACCCAUGUCAGGAUAUGCUUCGGCUUCGGAAAUGAAGUUGAAGUAGAAGGGACUGCCC [-30.1, -29.1 kcal, A 27% sequence 3 bis] (Eterna round: R97, puzzle: Exclusion 1) and report it.
Output: 84.4

Task: UUUACAAGCUAUUGAUCCCACAUGAGGAUCACCCAUGUUCCUGGCCGUGAGGCUAGGUAAACAAUAGCUCGUCUUAU [Sensor-V1 #41] (Eterna round: R97, puzzle: Sensor, turn-off variant 1) ?
Output: 98.4

Task: How about CUGUUUUUCGCAGGAUAUGCUCCUCCAUUAUUUGCAGAAGGGCGUUGAACAUGAGGAUCACCCAUGUAUGGUAAUGACUAUUGC [JR_ExcNG1_Sub067] (Eterna round: R96, puzzle: Exclusion NG 1) ?
Output: 23.5

Task: // repeat for UUAUACAAGCAAAGAUCCCACAUGAGGAUCACCCAUGUGCUCGUCUUAUAAGGUACUGUGACGAUAGUCACGGUACC [Mat - Sensor, turn-off var - Eli Mod - D102] (Eterna round: R97, puzzle: Sensor, turn-off variant 1) and report
Output: 38.3

Task: Another: AAAUCGAGACGGAGAUCCGACAUGAGGAUCACCCAUGUCUCGUAAGCUUUUUGCUCGUCUUAUACUCCUCUGUUCUC [Elimod 50 - Jieux - Sensor, turn-off variant 1] (Eterna round: R97, puzzle: Sensor, turn-off variant 1)
Output: 22.5

Task: And what about the sequence GGGUGCAGGCUGGGAUCCUACAUGAGGAUCACCCAUGUGGUCCGGUGACGUGAGUCACCGGACUUAGCUCGUCUUGU [salish99_S_TOV1_R5_008] (Eterna round: R97, puzzle: Sensor, turn-off variant 1) ?
Output: 569

Task: Query GGAUCGAGUGUGAGGAUAUGCUGGUCCUUGGAUCAGCAGAAGGCACAUGAGGAUCACCCAUGUGAUCAAGAUCC [Eli bmx4 4.76] (Eterna round: R97, puzzle: Brourd's mod of Exclusion 4) next
Output: 50.9

Task: Another sequence to check: UUUGUUUAUGUAGGAUAUGCCUGGCGUGCCUUCGCAGAAGGACAUGAGGAUCACCCAUGUAUUGCGGUCUGCGUUCAGAUCGCU [salish99_ExNG1_r4_030] (Eterna round: R96, puzzle: Exclusion NG 1)
Output: 46.8

Task: Quick one: CAUCCACAUGAGGAUCACCCAUGUCAGGAUAUUGUACAAACCCAAUCAUAUUGGGCGUCAAGAAGGGACAUUCU [EX1 B.5] (Eterna round: R97, puzzle: Exclusion 1)
Output: 22.8

----------
- Tested on: MS2 coat protein
- assay remarks: apparent KD of MS2 coat protein, switch ON state; designed switch direction (-1 OFF switch, 1 ON switch): 1; higher = weaker reporter binding
- condition context: FMN input: 0 or 200 uM; Eterna round: R93 (includes R88 designs)
Listing of recorded apparent KD of MS2 coat protein by entry.
Answer with the number, then the unit.

For orientation, consider the following solved cases.
>>> result("AGAAGACAUGAGGAUCACCCAUGUGGGAUUAUGGGAGGAUAUACAAAGACGAGAGUCAGAGUAGAAGGCCUAGGAU [salish99-ss1-113(!)]")
"0.0247 µM"
>>> result("AGAUCUAGAAGGUAGGAUAUGUGAAAAAAAACAUGAGGAUCACCCAUGUGAUGAAUAAAAAGAAAAUAGAAGGACCAUCUAGAUC [Cross swing 1]")
"0.016 µM"
>>> result("AGAAAUAAAACGAAGGAUAUCCAAAAUAAAACAUGAGGAUCACCCAUGUAAAAGAAAAUAAAGUGGGAGAAGGUCGAAAAUAAGA [Designing denovo 15]")
"0.012 µM"
>>> result("GAAAUAAAAAGACAGGAUAUCCAAAAGAAAACAUGAGGAUCACCCAUGUAAAGAAAAUAAAAAUGGGAGAAGGGUCAAAUAAAAG [Mat - Same State 2 - JL mod - D54]")
"0.024 µM"
>>> result("AAAAAACAUGAGGAUCACCCAUGUCAAAAGACAUGAGGAUAUGUACAGACUUCGGUCUGUACAGAAGGCAUGUCAA [SS1 - 1019]")
"0.0211 µM"

Task: Item AAUAAACAUGAGGAUCACCCAUGUACCUACCACUAAGGAUAUGGGCGAAUAACAGCUCGGCCAGAAGGUAGAGGUG [Onususer] with MS2 coat protein - apparent KD of MS2 coat protein?
Output: 0.116 µM

Task: // next record AUAUAUAAAAGGUAGGAUAUUCUAAAAUAAACAUGAGGAUCACCCAUGUAAAGAAAGAAACUCAUGGAGAAGGACCAUAUAUAUA [ss2 5th modifying Eli's mod of Tesla]
Output: 0.0456 µM

Task: Then what about the sequence AAAUAUAAAGACUAGGAUAUACUAAAAUAAACAUGAGGAUCACCCAUGUAAAAAAUAAAACUCAUGUAGAAGGAGUAAAUAUAAA [ss2 10th] ?
Output: 0.0135 µM

Task: Also AGGAAACAUGAGGAUCACCCAUGUAAAAAUAACGCAGGAUAUGGAAACACGAAAGUGAAACCAGAAGGGUGAAAAG [77%, Mat - Mod of Eli, 14] , if possible.
Output: 0.0189 µM

Task: Also, AAAAGACAUGAGGAUCACCCAUGUCAAAACGUAGGAGGAUAUGUCGUGAAAAAAGACUUGACAGAAGGCCUGUGUC [SS1 - 36] please.
Output: 0.0158 µM

Task: Next sequence: AAUACCACUAGCAAGGAUAUCUAAAACGAAACAUGAGGAUCACCCAUGUGACGACCACACGUAUCAGAGAAGGUGCAGGGUGAAU [JR_SS002_Sub306]
Output: 0.0242 µM

Task: Would you mind doing AUAUAUAUAAGGUAGGAUAUCCAAAAAUAAACAUGAGGAUCACCCAUGUCCAUAAAGAAUAAAUGGGAGAAGGACCAUAUAUAUA [viburnum 9] as well?
Output: 0.0285 µM

Task: Further, for GAGAAGAAGAGAGAGGAUAUCCAAAGGAAAACAUGAGGAUCACCCAUGUAAAAGGUAGGAAAUUGGGAGAAGGCUCAAAAGAGGG [salish99-ss2-028(!)] ?
Output: 0.0199 µM

Task: What do you get for AACAAUCUAUCUGAGGAUAUGAUGUCAAAGACAUGAGGAUCACCCAUGUCCAGGAAAACUGGAUAUCAGAAGGCAGAUAGAUUGA [SS2: 1104] ?
Output: 0.0102 µM

Task: # repeat for AAUAUACAUGAGGAUCACCCAUGUAUUAAUAGCUGAGGAUAUACGGGUGAAAAUAGCAUAGUAGAAGGCGGGUGUA [SameState1 Malc#10]
Output: 0.107 µM

Task: And what about the sequence CAUCAUGCGCCUAAGGAUAUGUCUCACAAGACAUGAGGAUCACCCAUGUAGAAUAAAUAAAUGAUGCAGAAGGUGGAGCACAUGC [Leedanla] ?
Output: 0.372 µM

Task: Same for CAGAGGAAGAGAGAGGAUAUCCAAAGGAAAACAUGAGGAUCACCCAUGUAAAAGGUAGGAAAUUGGGAGAAGGCUCAAGAGAGAG [salish99-ss2-064]
Output: 0.0274 µM

Task: And then AAAAAACAUGAGGAUCACCCAUGUGAAAAAUUCGCAGGAUAUCCCUUUUUUAAAUGGGAGGGAGAAGGGUGAAAAA [Nob's Hobby 16 - Jieux - Same State 1] , what is it?
Output: 0.0348 µM

Task: Please answer likewise for AAAAAAAAAACUGAGGAUAUCAGGGAUGGUACAUGAGGAUCACCCAUGUUGGCGGGCGAAGAAACUGAGAAGGCAGAAAAAAAAAA [JR_SameState2_Sub4]
Output: 0.0404 µM

Task: Check AUUAAAUAUAGUUAGGAUAUAAUAUGUAAGACAUGAGGAUCACCCAUGUCCUAAGAAUAGUUAAAUUAGAAGGAACAGUGAAUAU [JR_SS002_Sub420] too.
Output: 0.0241 µM

Task: Would you kindly repeat that for AAAUAAAUGACUGAGGAUAUAUCGAUGAAAACAUGAGGAUCACCCAUGUGAUAAUAAAAAGGGUGAUAGAAGGUAGUCAACAAAC [Mod 11 of Pariah 4 by Hyphema in Round 1] ?
Output: 0.0521 µM

Task: Check AAAAAACAUGAGGAUCACCCAUGUAAAAAAAUGGGAGGAUAUCUGAAUUAAUUAAAUUAAGGAGAAGGCCUAAAAA [71%, Same state of confusion2, 4] too.
Output: 0.026 µM

Task: # iterate: AAUCCAAAUAGUCAGGAUAUCAAAAAUAAGACAUGAGGAUCACCCAUGUAAUAAGUAAAAGUAAAUGAGAAGGGACAGGGUGAAA [JR_SS002_Sub401]
Output: 0.398 µM

Task: Okay, and CGAAGACAUGAGGAUCACCCAUGUCGUCGUAACAGAGGAUAUGGGAGCGCCAAGGGCGCAUCAGAAGGCUGAAAAC [Beusle] ?
Output: 0.0178 µM
